system: HCV 1a replicon; assay: Cell-based HCV replicon assay (TaqMan), genotype 1a replicon; conditions: Hepatitis C virus, 72 h, HCV genotype 1a replicon cells, replicon RNA by real time PCR, day 3; EC90 = concentration for ΔCT=3.2 over baseline
Measured attribute: log10 of EC90 (log10 of the value in nM)
// stored as log10 of EC90 expressed in nM

Examples with answers:
Q. What log10 of EC90 value was documented for this compound, COC(=O)N[C@@H](CC(C)(C)C)C(=O)N1C[Si](C)(C)C[C@H]1c1nc2ccc3cc(-c4ccc(-c5cnc([C@@H]6CCCN6C(=O)[C@@H](NC(=O)OC)C(C)C)[nH]5)cc4)ccc3c2[nH]1 [Compound 72] ?
A. -0.74

Q. And for CC[C@H](C)[C@H](NC(=O)OC)C(=O)N1C[Si](C)(C)C[C@H]1c1nc2ccc3cc(-c4ccc(-c5cnc([C@@H]6CCCN6C(=O)[C@@H](NC(=O)OC)C(C)C)[nH]5)cc4)ccc3c2[nH]1 [Compound 59] ?
A. -0.21

Q. And for COC(=O)N[C@H](C(=O)N1C[Si](C)(C)C[C@@H]1c1nc2ccc3cc(-c4ccc5cc(-c6cnc([C@H]7CCCN7C(=O)[C@H](NC(=O)OC)C(C)C)[nH]6)ccc5c4)ccc3c2[nH]1)C1CCOCC1 [Compound 118] ?
A. -1.64

More entries:
Q. What log10 of EC90 value was documented for this compound, COC(=O)N[C@H](C(=O)N1CCC[C@H]1c1ncc(-c2ccc(-c3ccc4c(ccc5nc([C@@H]6C[Si](C)(C)CN6C(=O)[C@@H](NC(=O)OC)C6CCCCC6)[nH]c54)c3)cc2)[nH]1)C(C)C [Compound 67] ?
A. -0.30

Q. And for COC(=O)N[C@H](C(=O)N1C[Si](C)(C)C[C@H]1c1nc2ccc3cc(-c4ccc(-c5[nH]c([C@@H]6C[C@H]7C[C@H]7N6C(=O)[C@@H](NC(=O)OC)C6CCOCC6)nc5Cl)cc4)ccc3c2[nH]1)C1CCOCC1 [Compound 103] ?
A. -1.09

Q. And for COC(=O)N1CCOC[C@H]1C(=O)N1C[Si](C)(C)C[C@H]1c1ncc(-c2ccc(-c3ccc4c(ccc5nc([C@@H]6CCCN6C(=O)[C@@H]6COCCN6C(=O)OC)[nH]c54)c3)cc2)[nH]1 [Compound 39] ?
A. 2.17

Q. And for COC(=O)N[C@@H](CC(C)(C)C)C(=O)N1CCC[C@H]1c1ncc(-c2ccc(-c3ccc4c(ccc5nc([C@@H]6C[Si](C)(C)CN6C(=O)[C@@H](NC(=O)OC)C(C)C)[nH]c54)c3)cc2)[nH]1 [Compound 84] ?
A. -0.04

Q. And for COC(=O)N[C@H](C(=O)N1C[Si](C)(C)C[C@H]1c1ncc(-c2ccc(-c3ccc4c(ccc5nc([C@@H]6CCCN6C(=O)[C@@H](NC(=O)OC)C(C)C)[nH]c54)c3)cc2)[nH]1)C(C)C [Compound 3] ?
A. -1.51

Q. And for COC(=O)N[C@H](C(=O)N1C[Si](C)(C)C[C@H]1c1ncc(-c2ccc(-c3ccc4c(ccc5nc([C@@H]6CCCN6C(=O)[C@@H](NC(=O)OC)C6CCCOCC6)[nH]c54)c3)cc2)[nH]1)C1CCCOCC1 (stereo partly drawn) [Compound 52] ?
A. 0.36

----------
system: HCV 1a replicon; test: Cell-based HCV replicon assay (TaqMan), genotype 1a replicon; settings: Hepatitis C virus, 72 h, HCV genotype 1a replicon cells, replicon RNA by real time PCR, day 3; EC90 = concentration for ΔCT=3.2 over baseline
Measured attribute: EC90

Examples with answers:
Q. What EC90 value was documented for this compound, "COC(=O)N[C@@H](C(=O)N1CCC[C@@H]1c1ncc(-c2ccc3cc(-c4ccc5c(ccc6nc([C@H]7C[Si](C)(C)CN7C(=O)OC(C)(C)C)[nH]c65)c4)ccc3c2)[nH]1)C(C)C" ?
A. > 1 nM

Q. And for "COC(=O)N1CCC[C@H]1C(=O)N1C[Si](C)(C)C[C@H]1c1ncc(-c2ccc(-c3ccc4c(ccc5nc([C@@H]6CCCN6C(=O)[C@@H]6CCCN6C(=O)OC)[nH]c54)c3)cc2)[nH]1" ?
A. > 1000 nM

Proceeding to the next compound to report its EC90.
Q. What EC90 value was documented for this compound, "COC(=O)N[C@@H](C(=O)N1C[Si](C)(C)C[C@H]1c1ncc(-c2ccc(-c3ccc4c(ccc5nc([C@@H]6CCCN6C(=O)[C@H](NC(=O)OC)C6CC6)[nH]c54)c3)cc2)[nH]1)C1CC1" ?
A. > 1000 nM

----------
Listed compounds paired with reported log10(EC90)
tested on: HCV 1a replicon; assay: Cell-based HCV replicon assay (TaqMan), genotype 1a replicon; conditions: Hepatitis C virus, 72 h, HCV genotype 1a replicon cells, replicon RNA by real time PCR, day 3; EC90 = concentration for ΔCT=3.2 over baseline
// stored as log10 of EC90 expressed in nM

Examples with answers:
Q. What log10(EC90) value was documented for this compound, "COC(=O)N[C@@H](CO)C(=O)N1CCC[C@H]1c1ncc(-c2ccc(-c3ccc4c(ccc5nc([C@@H]6C[Si](C)(C)CN6C(=O)[C@@H](NC(=O)OC)C(C)C)[nH]c54)c3)cc2)[nH]1" ?
A. -0.25

Q. And for "COC(=O)N[C@@H](CC1CC1)C(=O)N1CCC[C@H]1c1ncc(-c2ccc(-c3ccc4c(ccc5nc([C@@H]6C[Si](C)(C)CN6C(=O)[C@@H](NC(=O)OC)C(C)C)[nH]c54)c3)cc2)[nH]1" ?
A. -0.34

Q. And for "CCN(CC)[C@H](C(=O)N1C[Si](C)(C)C[C@H]1c1nc2ccc3cc(-c4ccc(-c5cnc([C@@H]6CCCN6C(=O)[C@@H](NC(=O)OC)C(C)C)[nH]5)cc4)ccc3c2[nH]1)c1ccccc1" ?
A. -0.85

Q. And for "COC(=O)N[C@H](C(=O)N1C[Si](C)(C)C[C@H]1c1ncc(-c2ccc(-c3ccc4c(ccc5nc([C@@H]6CC(F)(F)CN6C(=O)[C@@H](NC(=O)OC)C(C)C)[nH]c54)c3)cc2)[nH]1)C(C)C" ?
A. -1.38

Q. And for "COC(=O)N[C@H](C(=O)N1CC(F)(F)C[C@H]1c1ncc(-c2ccc(-c3ccc4c(ccc5nc([C@@H]6C[Si](C)(C)CN6C(=O)[C@@H](NC(=O)OC)C(C)C)[nH]c54)c3)cc2)[nH]1)C(C)C" ?
A. -1.33

Q. And for COC(=O)NC(C(=O)N1C[Si](C)(C)C[C@H]1c1nc2ccc3cc(-c4ccc5cc(-c6cnc([C@@H]7CCCN7C(=O)[C@H](NC(=O)OC)C(C)C)[nH]6)ccc5c4)ccc3c2[nH]1)[C@@H](C)OC (some centres unmarked) ?
A. -1.41

Q. And for "CC[C@H](NC(=O)OC)C(=O)N1C[Si](C)(C)C[C@H]1c1ncc(-c2ccc(-c3ccc4c(ccc5nc([C@@H]6CCCN6C(=O)[C@H](CC)NC(=O)OC)[nH]c54)c3)cc2)[nH]1" ?
A. -0.52

More entries:
Q. What log10(EC90) value was documented for this compound, "COC(=O)N[C@H](C(=O)N1CCC[C@H]1c1ncc(-c2ccc(-c3ccc4c(ccc5nc([C@@H]6C[Si](C)(C)CN6C(=O)[C@@H](NC(=O)OC)C6CCOCC6)[nH]c54)c3)cc2)[nH]1)C(C)C" ?
A. -0.48
